tested on: SNB-19 CNS; assay: NCI tumour cell line growth inhibition, 48 h
*1 amine or outer side, *2 acyl side, *3 side chain or, on linkers, in order; H or OH if unused. Where a SMILES comes first, the peptide text is derived from it. Bridges are numbered along the chain shown (N, C = ends). Roman numbers before positions name the chains, in order. X23 = CCCCCCCCCCCCCCC(=O)NC(CCCCN[*:2])C(=O)CN1CCCC1C(=O)[*:1]
experimental readout: TGI

Would you mind telling me what TGI value was observed for "O=c1c(-c2ccc3c(c2)OCO3)coc2c(CO)c(O)ccc12" ?
10.3 µM

Try the compound Cc1cc(C(=O)N2CCN(C)CC2)c2c(=O)n(-c3ccccc3)c(=O)n(CC(O)CN3CCN(c4ncccn4)CC3)c2n1 (stereo unspecified)
> 100 µM

Try the compound "O=C1NC(=O)C(N2CCc3ccccc32)=C1c1ccc(Cl)cc1"
> 25 µM

Try the compound "O=[N+]([O-])c1ccc(N/N=C/c2ccccc2O)nc1"
> 100 µM

Try the compound "Cc1ccc(N(C)S(=O)(=O)c2ccccc2)cc1"
> 100 µM

Try the compound CC(C)(C)C1CCC(CI)(N=[N+]=[N-])CC1 (stereo unspecified)
> 100 µM

Try the compound "CCOc1ccc(/C=N\N2C(=O)c3ccccc3C2=O)cc1"
> 100 µM

Try the compound CC(N)CN.CC(N)CN.[Cl-].[O]=[Os+2]=[O] (stereo unspecified)
> 100 µM

Try the compound "Cc1cc(NS(=O)(=O)c2ccc(NC(=O)COc3ccc(-c4cc5ccccc5[nH]4)cc3)cc2)no1"
8.69 µM

Try the compound NC(CCC(=O)NC(CSC(=O)N(O)c1ccc(Cl)cc1)C(=O)NCC(=O)O)C(=O)O (stereo unspecified)
> 0.5 µM

Try the compound CC1C2CC(CC2O)C1(C)C (stereo unspecified)
> 100 µM

Try the compound "CC[C@@]1(O)C(=O)OCc2c1cc1n(c2=O)Cc2cc3c(Cl)c4c(cc3nc2-1)OCO4"
0.26 µM

Try the compound "C=C1C(=O)O[C@H]2[C@H]1CC/C(COC(=O)c1cccc3ccccc13)=C\CC[C@@]1(C)O[C@@H]21"
3.19 µM

Try the compound "Clc1ccc(/C=C/c2nc(-c3ccc(Cl)cc3)cn3c2nc2ccccc23)cc1"
> 100 µM

Try the compound "Cc1cc(CN(Cc2ccccc2)Cc2nc3ccccc3[nH]2)c(O)c(CN(Cc2nc3ccccc3[nH]2)Cc2nc3ccccc3[nH]2)c1"
> 25.1 µM

Try the compound CCCCCCCCCCCCCCC(=O)NC(CCCCNC(=O)C1CCCN1C(=O)C(CCCCN)NC(=O)C(CCCCN)NC(=O)C(CCCCN)NC(=O)C(CCCNC(=N)N)NC(=O)C(CCCCN)NC(=O)C(N)C(C)C)C(=O)CN1CCCC1C(=O)NCC(=O)NC(Cc1ccccc1)C(=O)N1CCCC1C(=O)NC(CO)C(=O)NC(Cc1ccc(O)cc1)C(=O)NC(CCCCN)C(=O)NC(CC(C)C)C(=O)NC(CCCNC(=N)N)C(=O)N1CCCC1C(=O)NCC(N)=O (stereo unspecified) (I: GFPSYKLRPG-NH2 / II: H-VKRKKKP; linker I:N-II:C via X23; configuration not given here)
76.6 µM

Try the compound "C[C@]12CC[C@H]3[C@@H](CC=C4C[C@@H](O)CC[C@@]43C)[C@@H]1C[C@H](N1CCOCC1)[C@@H]2O"
> 100 µM

Try the compound "N=c1oc2ccc([N+](=O)[O-])cc2cc1C(=O)Nc1ccccn1"
> 100 µM

Try the compound "CCn1c(SCC(=O)NNC(=S)Nc2ccc(Cl)cc2)nc2ccccc2c1=O"
> 100 µM

Try the compound "O=C(OCC(Cl)(Cl)Cl)N1CC[C@@H](C2CCCCC2)C1"
38.6 µM

Try the compound "CC1=C(C(=O)Nc2cccc(C(F)(F)F)c2)C(c2ccccc2F)C(C(=O)Nc2cccc(C(F)(F)F)c2)=C(C)N1"
25.8 µM

Try the compound CC(=O)C(CN(C)Cc1ccccc1)C(c1ccccc1)c1c(O)c2ccccc2oc1=O (stereo unspecified)
93.2 µM

Try the compound "CC(=O)[C@H]1[C@@H](OCc2ccccc2)O[N+]([O-])=C(C)[C@@H]1c1ccccc1"
> 100 µM

Try the compound COC(=O)CCN1CCN(CCO)CC1C (stereo unspecified)
> 10 µM

Try the compound "O=S1CCN(Cc2ccc(-c3ccc4ncnc(Nc5ccc(OCc6ccccc6)c(F)c5)c4c3)o2)CC1"
> 25 µM

Try the compound COc1ccc(C2c3cc4c(c(OC)c3CC3OCC(=O)C32)OCO4)cc1OC (stereo unspecified)
> 100 µM

Try the compound "c1ccc2c(c1)ncn2CCn1ccnc1"
> 100 µM

Try the compound "O=C(Nc1sccc1S(=O)(=O)c1ccc(Cl)cc1)c1ccc(Cl)cc1Cl"
> 100 µM

Try the compound "O=C1NC(=O)/C(=C/c2ccc(S(=O)(=O)N/N=C/c3ccccc3)cc2)N1"
> 100 µM

Try the compound "COc1cc(CCC(=O)O)c2cc3ccccc3cc2c1O"
60.5 µM

Try the compound "O=C(Cc1nc2ccc(C(=O)c3ccccc3)cc2[nH]c1=O)C(=O)Nc1ccc(C(F)(F)F)cc1[N+](=O)[O-]"
> 100 µM

Try the compound "CCCC1=NC(C(F)(F)F)(C(F)(F)F)N=C(N2CCOCC2)O1"
> 100 µM

Try the compound CC(C)CC(NC=O)C(=O)NC(Cc1ccccc1)NC(=O)CNC(=O)C(C)NC(=O)OC(C)(C)C (stereo unspecified)
> 100 µM

Try the compound "C/C(=C\CCc1ccsc1)CC/C=C(\C)CCCN1CCN(CCO)CC1"
21 µM

Try the compound "O=Cc1c[nH]c2ccc(-c3csc4ccccc34)cc12"
> 100 µM

Try the compound "Cc1ccc2c(n1)C(=O)C(Cl)=C(Nc1ccc(N3CCN(C)CC3)cc1)C2=O"
21.7 µM
